test: folding enthalpy; higher = less favourable; fluorescence melt of hairpins on a sequencing array, two-state fit; conditions: sodium 0.088 M
metric: folding enthalpy (kJ/mol)
# number only, unit kJ/mol dropped from output

GATGGGGAAACCCATC ((((((....))))))	-143

Query block: For CGTCCGGAAACGGCTACG ((((((....)))..))) , what is its reported folding enthalpy?
Result block: -52.9

Query block: For GACCCCGAAAGGGGCGTC ((((((....)))..))) , what is its reported folding enthalpy?
Result block: -48.9

Query block: For GATCCACGTTGGATC ((((((...)))))) , what is its reported folding enthalpy?
Result block: -124

Query block: For GGAGACGAAAGTCCGTCC ((((((....)))..))) , what is its reported folding enthalpy?
Result block: -52

Query block: For GGGAACGGAAACGCTCCC ((((.((....)).)))) , what is its reported folding enthalpy?
Result block: -153

Query block: For GCCGTGCGAAAGCAGAGC ((..(((....)))..)) , what is its reported folding enthalpy?
Result block: -56.7
